The measurements presented in this section are drawn from patent US20180016312A1.

Please go through the items and note down their IC50.
# tested-target: T1, human angiopoietin-2 (human, UniProt O15123 19-496, limits assumed)
# T1 construct: Bought recombinant protein with a His tag (detected by anti-HIS-tag antibody); also called human Ang-2; hAng-2
# T1 sequence (looked up): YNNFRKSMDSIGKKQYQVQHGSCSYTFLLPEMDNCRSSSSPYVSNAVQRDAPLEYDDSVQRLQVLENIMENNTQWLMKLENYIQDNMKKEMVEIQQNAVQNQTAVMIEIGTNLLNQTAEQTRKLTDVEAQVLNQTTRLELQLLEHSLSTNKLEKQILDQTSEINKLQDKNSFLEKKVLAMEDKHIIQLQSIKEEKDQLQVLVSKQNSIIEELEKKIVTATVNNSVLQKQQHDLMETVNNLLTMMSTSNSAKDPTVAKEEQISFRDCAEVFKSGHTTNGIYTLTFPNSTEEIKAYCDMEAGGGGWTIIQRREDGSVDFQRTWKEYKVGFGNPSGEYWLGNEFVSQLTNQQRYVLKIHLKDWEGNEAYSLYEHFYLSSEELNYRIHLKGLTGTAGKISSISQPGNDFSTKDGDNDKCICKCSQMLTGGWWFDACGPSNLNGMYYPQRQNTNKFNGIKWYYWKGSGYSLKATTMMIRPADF
# assay-remarks: competition cell ECL; hAng-2 pre-incubated with binder, free Ang-2 captured on HEK:hTie-2 cells (competitor)
One number for each entry, in nM.

Worked examples, 3 binders total:
{"columns": ["binder", "quantity-unit", "IC50"],
 "data": [
  ["hNGAL lipocalin mutein SEQ ID NO: 6 (designed binder, Mutein of mature hNGAL) QDSTSDLIPAPPLSKVPLQQNFQDNQFHGKWYVVGQAGNYILREDKDPEKMWATIYELKEDKSYDVTGVSFGPKKCNYRIWTFVPGSQPGEFTLGGIKSSPGQTSTLVRVVSTNYNQHAMVFFKHVLQNREFFEITLYGRTKELTSELKENFIRFSKSLGLPENHIVFPVPIDQCIDGSAWSHPQFEK", "nM", 3.46],
  ["hNGAL lipocalin mutein SEQ ID NO: 9 (designed binder, Mutein of mature hNGAL; Biotinylated with NHS-PEG4-Biotin for the SPR assay) QDSTSDLIPAPPLSKVPLQQNFQDNQFHGKWYVVGHAGNYILREDKDPGKMWATIYELKEDKSYDVTEVSFGPKKCNYRIWTFVPGSQPGEFTLGGIKSPPGGTSTLVRVVSTNYNQHAMVFFKHVLQNREFFEITLYGRTKELTSELKENFIRFSKSLGLPENHIVFPVPIDQCIDGSAWSHPQFEK", "nM", 3.82],
  ["hNGAL lipocalin mutein SEQ ID NO: 11 (designed binder, Mutein of mature hNGAL; Biotinylated with NHS-PEG4-Biotin for the SPR assay) QDSTSDLIPAPPLSKVPLQQNFQDNQFHGKWYVVGQAGNYILREDKDPVKMWATIYELKEDKSYDVTEVSFGPKKCNYRIWTFVPGSQPGEFTLGGIKSLPGGTSTLVRVVSTNYNQHAMVFFKHVLQNREFFEITLYGRTKELTSELKENFIRFSKSLGLPENHIVFPVPIDQCIDGSAWSHPQFEK", "nM", 4.79]
]}

Quick request: IC50 for each listed item, please.
1. hNGAL lipocalin mutein SEQ ID NO: 3 (designed binder, Mutein of mature hNGAL) QDSTSDLIPAPPLSKVPLQQNFQDNQFHGKWYVVGVAGNWYLREDKDPIKMTATIYELKEDKSYNVTQVGFEQKKCKYSIHTFVPGSQPGEFTLGDIKSWPGDTSLLVRVVSTNYNQHAMVFFKGVMQNREVFAITLYGRTKELTSELKENFIRFSKSLGLPENHIVFPVPIDQCIDGSAWSHPQFEK
2. hNGAL lipocalin mutein SEQ ID NO: 8 (designed binder, Mutein of mature hNGAL; Biotinylated with NHS-PEG4-Biotin for the SPR assay) QDSTSDLIPAPPLSKVPLQQNFQDNQFHGKWYVVGQAGNYILREDKDPGKMWATIYELKEDKSYDVTEVSFGAKKCNYRIWTFVPGSQPGEFTLGGIKSDPGGTSTLVRVVSTNYNQHAMVFFKHVLQNREFFEITLYGRTKELTSELKENFIRFSKSLGLPENHIVFPVPIDQCIDGSAWSHPQFEK
3. hNGAL lipocalin mutein SEQ ID NO: 1 (designed binder, Mutein of mature hNGAL) QDSTSDLIPAPPLSKVPLQQNFQDNQFHGKWYVVGQAGNYILREDKDPGKMWATIYELKEDKSYNVTGVSFGPKKCNYTIWTFVPGSQPGEFTLGGIKSPPGGTSTLVRVVSTNYNQHAMVFFKHVLQNREFFEITLYGRTKELTSELKENFIRFSKSLGLPENHIVFPVPIDQCIDGSAWSHPQFEK
4. hNGAL lipocalin mutein SEQ ID NO: 10 (designed binder, Mutein of mature hNGAL) QDSTSDLIPAPPLSKVPLQQNFQDNQFHGKWYVVGQAGNYILREDKDPQKMWATIYELKEDKSYDVTGVSFGAKKCVYRIWTFVPGSQPGEFTLGGIKSPPGGTSTLVRVVSTNYNQHAMVFFKHVLQNREFFEITLYGRTKELTSELKENFIRFSKSLGLPENHIVFPVPIDQCIDGSAWSHPQFEK
5. hNGAL lipocalin mutein SEQ ID NO: 14 (designed binder, Mutein of mature hNGAL) QDSTSDLIPAPPLSKVPLQQNFQDNQFHGKWYVVGMAGNWDLREDKDPIKMTATIYELKEDKSYDVTQVAFEQKKCKYSIHTFVPGSQPGEFTLGQIKSWPGDTSPLVRVVSTNYNQHAMVFFKGVMQNREVFAITLYGRTKELTSELKENFIRFSKSLGLPENHIVFPVPIDQCIDGSAWSHPQFEK

-- reply
1. 10.7
2. 3.75
3. 18.9
4. 4.63
5. 6.41
